Just for reference, patent US20240376198A1 is where these values come from.

Target: T1, mouse NKp46 (mouse, UniProt Q8C567 17-325)
T1 construct: whole, on cells
T1 sequence (looked up): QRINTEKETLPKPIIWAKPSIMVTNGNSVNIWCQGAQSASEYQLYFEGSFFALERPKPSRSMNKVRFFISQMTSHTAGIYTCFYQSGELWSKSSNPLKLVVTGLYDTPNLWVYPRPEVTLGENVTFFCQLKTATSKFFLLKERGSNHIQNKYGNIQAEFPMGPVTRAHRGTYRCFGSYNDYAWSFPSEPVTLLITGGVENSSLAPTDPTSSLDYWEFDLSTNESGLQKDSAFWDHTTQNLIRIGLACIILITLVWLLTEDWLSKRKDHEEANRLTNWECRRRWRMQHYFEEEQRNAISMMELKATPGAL
Experiment: flow cytometry, HEK293F cells transfected with mouse NKp46
Result type: log10 Kd (log10 of the value in nM)

{"Binder": "NKp46-hz5D7v14-Fc* (Fc fusion, VHH-Fc fusion with an IgG1 Fc lacking a hinge (Fc*)) EVQLVESGGGEVQPGGSLRLSCAASGRTFASAAMGWFRQAPGKEREFVAAISRSDDTYYAESVKGRFTISRDNAKNTVYLQMSSLRAEDTAVYYCAAVVPTYGSSIYVHSAAYNYWGQGTLVTVKPGGGGPSVFLFPPKPKDTLMISRTPEVTCVVVDVSHEDPEVKFNWYVDGVEVHNAKTKPREEQYNSTYRVVSVLTVLHQDWLNGKEYKCKVSNKALPAPIEKTISKAKGQPREPQVYTLPPSRDELTKNQVSLTCLVKGFYPSDIAVEWESNGQPENNYKTTPPVLDSDGSFFLYSKLTVDKSRWQQGNVFSCSVMHEALHNHYTQKSLSLSPG", "log10 Kd": 0.81}
{"Binder": "NKp46-hz5D7v12-Fc* (Fc fusion, VHH-Fc fusion with an IgG1 Fc lacking a hinge (Fc*)) EVQLVESGGGEVQPGGSLRLSCAASGRTFASAAMGWFRQAPGKEREFVAAISRSDDTYYAESVKGRFTISRDNAKNTVYLQMSSLRAEDTAVYYCAAVVPTYGSNIYVHSAAYNYWGQGTLVTVKPGGGGPSVFLFPPKPKDTLMISRTPEVTCVVVDVSHEDPEVKFNWYVDGVEVHNAKTKPREEQYNSTYRVVSVLTVLHQDWLNGKEYKCKVSNKALPAPIEKTISKAKGQPREPQVYTLPPSRDELTKNQVSLTCLVKGFYPSDIAVEWESNGQPENNYKTTPPVLDSDGSFFLYSKLTVDKSRWQQGNVFSCSVMHEALHNHYTQKSLSLSPG", "log10 Kd": -0.29}
{"Binder": "NKp46-hz5D7v13-Fc* (Fc fusion, VHH-Fc fusion with an IgG1 Fc lacking a hinge (Fc*)) EVQLVESGGGEVQPGGSLRLSCAASGRTFASAAMGWFRQAPGKEREFVAAISRSDDTYYAESVKGRFTISRDNAKNTVYLQMSSLRAEDTAVYYCAAVVPTYGNTIYVHSAAYNYWGQGTLVTVKPGGGGPSVFLFPPKPKDTLMISRTPEVTCVVVDVSHEDPEVKFNWYVDGVEVHNAKTKPREEQYNSTYRVVSVLTVLHQDWLNGKEYKCKVSNKALPAPIEKTISKAKGQPREPQVYTLPPSRDELTKNQVSLTCLVKGFYPSDIAVEWESNGQPENNYKTTPPVLDSDGSFFLYSKLTVDKSRWQQGNVFSCSVMHEALHNHYTQKSLSLSPG", "log10 Kd": -0.22}
{"Binder": "NKp46-hz5D7v3-Fc* (Fc fusion, VHH-Fc fusion with an IgG1 Fc lacking a hinge (Fc*); also called NKp46-bz5D7v3-Fc*) EVQLVESGGGEVQPGGSLRLSCAASGRTFASAAMGWFRQAPGKEREFVAAISRSDDTYYAESVKGRFTISRDNAKNTVYLQMSSLRAEDTAVYYCAAVVPTYGNNIYVHSAAYNYWGQGTLVTVKPGGGGPSVFLFPPKPKDTLMISRTPEVTCVVVDVSHEDPEVKFNWYVDGVEVHNAKTKPREEQYNSTYRVVSVLTVLHQDWLNGKEYKCKVSNKALPAPIEKTISKAKGQPREPQVYTLPPSRDELTKNQVSLTCLVKGFYPSDIAVEWESNGQPENNYKTTPPVLDSDGSFFLYSKLTVDKSRWQQGNVFSCSVMHEALHNHYTQKSLSLSPG", "log10 Kd": -0.50}
{"Binder": "NKp46-hz5D7v15-Fc* (Fc fusion, VHH-Fc fusion with an IgG1 Fc lacking a hinge (Fc*)) EVQLVESGGGEVQPGGSLRLSCAASGRTFASAAMGWFRQAPGKEREFVAAISRSDDTYYAESVKGRFTISRDNAKNTVYLQMSSLRAEDTAVYYCAAVVPTYGNAIYVHSAAYNYWGQGTLVTVKPGGGGPSVFLFPPKPKDTLMISRTPEVTCVVVDVSHEDPEVKFNWYVDGVEVHNAKTKPREEQYNSTYRVVSVLTVLHQDWLNGKEYKCKVSNKALPAPIEKTISKAKGQPREPQVYTLPPSRDELTKNQVSLTCLVKGFYPSDIAVEWESNGQPENNYKTTPPVLDSDGSFFLYSKLTVDKSRWQQGNVFSCSVMHEALHNHYTQKSLSLSPG", "log10 Kd": -0.14}
